Target: full length USP7 (Homo sapiens (Human))
Test: Ub-AMC enzymatic assay with full-length USP7
Type: biochemical
Conditions: Table 2; 6 hours pre-incubation, Ub-AMC; read-out: IC50 (μM), USP7 activity in USP7 assay
Entries and their IC50 values follow.

Some compounds with recorded IC50:
| compound | test.target | IC50 |
| --- | --- | --- |
| O=C(CN1CCN(C(=O)c2ccc3c(Cl)c4c(nc3c2)CCCC4)CC1)N1CCC(O)(Cn2cnc3cc(Cl)ccc3c2=O)CC1 | full length USP7 (Homo sapiens (Human)) | 0.02 to 0.1 µM |
| CN1CCN(CCC(=O)Nc2ccc3c(=O)n(CC4(O)CCN(C(=O)C(CCCNC(=O)c5ccc(/C=C6\CCCCC6=O)cc5)Cc5ccccc5)CC4)cnc3c2)CC1 (stereo not shown) | full length USP7 (Homo sapiens (Human)) | 0.02 to 0.1 µM |
| C=CS(=O)(=O)NCCCC(Cc1ccccc1)C(=O)N1CCC(O)(Cn2cnc3cc(NC(=O)CCN4CCN(C)CC4)ccc3c2=O)CC1 (stereo not shown) | full length USP7 (Homo sapiens (Human)) | 0.02 to 0.1 µM |
| C#CCNCCCC(Cc1ccccc1)C(=O)N1CCC(O)(Cn2cnc3cc(NC(=O)CCN4CCN(C)CC4)ccc3c2=O)CC1 (stereo not shown) | full length USP7 (Homo sapiens (Human)) | 0.02 to 0.1 µM |
| O=C(CCN1CCN(C(=O)c2ccc3c(Cl)c4c(nc3c2)CCCC4)CC1)N1CCC(O)(Cn2cnc3cc(Cl)ccc3c2=O)CC1 | full length USP7 (Homo sapiens (Human)) | 0.1 to 1 µM |
| C=CC(=O)NCCCC(Cc1ccccc1)C(=O)N1CCC(O)(Cn2cnc3cc(NC(=O)CCN4CCN(C)CC4)ccc3c2=O)CC1 (stereo not shown) | full length USP7 (Homo sapiens (Human)) | < 0.02 µM |

Okay, next one:
Query string: Please look up its IC50: CN1CCN(CCC(=O)Nc2ccc3c(=O)n(CC4(O)CCN(C(=O)C(CCCNC(=O)c5ccc6cc7c(nc6c5)CCCC7)Cc5ccccc5)CC4)cnc3c2)CC1 (stereo not shown) [drawing 180]
Result string: 0.1 to 1 µM

* * *

Molecular target: USP7 (Homo sapiens (Human))
Sequence (Q93009 whole entry): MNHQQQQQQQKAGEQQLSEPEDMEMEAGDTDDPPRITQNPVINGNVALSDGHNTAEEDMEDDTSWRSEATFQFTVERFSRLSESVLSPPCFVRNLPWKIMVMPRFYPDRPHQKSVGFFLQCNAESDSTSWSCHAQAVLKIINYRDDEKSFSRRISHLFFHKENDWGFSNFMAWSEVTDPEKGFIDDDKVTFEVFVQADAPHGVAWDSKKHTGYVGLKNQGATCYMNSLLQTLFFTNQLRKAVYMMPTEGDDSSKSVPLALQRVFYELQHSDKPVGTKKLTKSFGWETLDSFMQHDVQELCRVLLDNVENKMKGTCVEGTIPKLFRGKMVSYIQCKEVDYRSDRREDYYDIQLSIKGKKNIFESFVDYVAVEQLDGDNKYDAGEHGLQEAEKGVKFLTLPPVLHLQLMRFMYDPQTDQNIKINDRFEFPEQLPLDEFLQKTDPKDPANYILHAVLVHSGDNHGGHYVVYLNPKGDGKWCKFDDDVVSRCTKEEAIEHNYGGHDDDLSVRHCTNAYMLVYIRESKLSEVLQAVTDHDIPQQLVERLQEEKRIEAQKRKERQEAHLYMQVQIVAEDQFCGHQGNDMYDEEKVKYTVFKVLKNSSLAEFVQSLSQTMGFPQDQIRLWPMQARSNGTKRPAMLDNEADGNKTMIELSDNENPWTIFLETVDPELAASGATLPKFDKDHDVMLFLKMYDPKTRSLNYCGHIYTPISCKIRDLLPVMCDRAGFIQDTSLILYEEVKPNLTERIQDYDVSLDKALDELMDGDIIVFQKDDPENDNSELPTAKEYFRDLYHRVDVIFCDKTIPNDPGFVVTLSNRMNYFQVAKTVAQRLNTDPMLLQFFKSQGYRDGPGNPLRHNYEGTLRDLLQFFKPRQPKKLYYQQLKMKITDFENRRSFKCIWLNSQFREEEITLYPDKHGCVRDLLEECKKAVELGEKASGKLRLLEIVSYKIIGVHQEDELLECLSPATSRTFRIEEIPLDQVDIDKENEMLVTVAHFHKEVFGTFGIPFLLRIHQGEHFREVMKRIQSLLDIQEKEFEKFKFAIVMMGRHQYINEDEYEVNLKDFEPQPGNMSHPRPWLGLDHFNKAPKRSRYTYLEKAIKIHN
Assay: Competitive ABPP with HA-Ub-VS in MCF7 crude cell extracts
Format: binding
Settings: 30 min preincubation, read-out: IC50 of inhibition of HA-Ub-VS labeling
metric: pIC50
Formally, pIC50 is defined as -log10 of the concentration c, with c in mol/L.

Query string: What value of pIC50 has been reported for the following compound? CN1CCN(CCC(=O)Nc2ccc3c(=O)n(CC4(O)CCN(C(=O)[C@@H](CCCNC(=O)c5ccc6c(Cl)c7c(nc6c5)CCCC7)Cc5ccccc5)CC4)cnc3c2)CC1
Result string: 7.07

* * *

Molecular target: full length USP7 (Homo sapiens (Human), UniProt Q93009)
Sequence (Q93009 whole entry): as above
Assay: Ub-AMC enzymatic assay with full-length USP7
Format: biochemical
Settings: Table 1; 6 hours pre-incubation, Ub-AMC; read-out: IC50 (nM), USP7 activity in USP7 assay
metric: IC50

Illustrative cases are given below, each with its answer.
| molecule | IC50 |
| --- | --- |
| CN1CCN(CCC(=O)Nc2ccc3c(=O)n(CC4(O)CCN(C(=O)C(CCCNC(=O)c5ccc6c(Cl)c7c(nc6c5)CCC7)Cc5ccccc5)CC4)cnc3c2)CC1 (stereo not drawn) | < 20 nM |
| CN1CCN(CCC(=O)Nc2ccc3c(=O)n(CC4(O)CCN(C(=O)C(CCCNC(=O)c5ccc6c(Cl)c7c(nc6c5)CCCC7)Cc5ccccc5)CC4)cnc3c2)CC1 (stereo not drawn) | < 20 nM |
| CN1CCN(CCC(=O)Nc2ccc3c(=O)n(CC4(O)CCN(C(=O)[C@@H](CCCNC(=O)c5ccc6c(Cl)c7c(nc6c5)CCCC7)Cc5ccccc5)CC4)cnc3c2)CC1 [drawing 146] | < 20 nM |
| CN1CCN(CCC(=O)Nc2ccc3c(=O)n(CC4(O)CCN(C(=O)CCCCCNC(=O)c5ccc6nc7c(c(Cl)c6c5)CCCC7)CC4)cnc3c2)CC1 | 20 to 100 nM |
| CN1CCN(CCC(=O)Nc2ccc3c(=O)n(CC4(O)CCN(C(=O)C(CCCNC(=O)c5ccc6c(c5)CCCN6C(=O)CCl)Cc5ccccc5)CC4)cnc3c2)CC1 (stereo not drawn) | 20 to 100 nM |

Query string: IC50 of CN(C)CCC(=O)Nc1ccc2c(=O)n(CC3(O)CCN(C(=O)CCCCNC(=O)c4ccc5c(Cl)c6c(nc5c4)CCCC6)CC3)cnc2c1 on full length USP7 (Homo sapiens (Human), UniProt Q93009)?
Result string: 20 to 100 nM

Query string: Find the measured IC50: item CN1CCN(CCC(=O)Nc2ccc3c(=O)n(CC4(O)CCN(C(=O)C(CCCNC(=O)c5ccc6c(Cl)c7c(nc6c5)CCCCC7)Cc5ccccc5)CC4)cnc3c2)CC1 (stereo not drawn) , target or system full length USP7 (Homo sapiens (Human), UniProt Q93009).
Result string: < 20 nM

Query string: Find IC50 (full length USP7 (Homo sapiens (Human), UniProt Q93009)) for the entry CN1CCN(CCC(=O)Nc2ccc3c(=O)n(CC4(O)CCN(C(=O)[C@H](Cc5ccccc5)NC(=O)CCNC(=O)c5ccc6c(Cl)c7c(nc6c5)CCCC7)CC4)cnc3c2)CC1
Result string: < 20 nM

Query string: // map CN1CCN(CCC(=O)Nc2ccc3c(=O)n(CC4(O)CCN(C(=O)CCCNC(=O)c5ccc6c(Cl)c7c(nc6c5)CCCC7)CC4)cnc3c2)CC1 to recorded IC50 (system: full length USP7 (Homo sapiens (Human), UniProt Q93009))
Result string: 20 to 100 nM

Query string: Form field - read-out: IC50; system: full length USP7 (Homo sapiens (Human), UniProt Q93009); submitted item: O=C(CCN1CCOCC1)Nc1ccc2c(=O)n(CC3(O)CCN(C(=O)[C@H](Cc4cc(F)cc(F)c4)NC(=O)CNC(=O)c4ccc5c(Cl)c6c(nc5c4)CCCC6)CC3)cnc2c1
Result string: < 20 nM

Query string: Query for full length USP7 (Homo sapiens (Human), UniProt Q93009): what IC50 does the record show for CN1CCN(CCC(=O)Nc2ccc3c(=O)n(CC4CCN(C(=O)C(CCCNC(=O)c5ccc6c(Cl)c7c(nc6c5)CCCC7)Cc5ccccc5)CC4)cnc3c2)CC1 (stereo not drawn) ?
Result string: > 1000 nM
